These entries and their values trace back to ChEMBL document CHEMBL1145993.

Could you please report measured RIA for the items listed next?
Species on record: Rattus norvegicus
Experiment: Relative intrinsic activity in stimulation of [35S]GTP gamma-S binding to rat adipocyte was determined
Format: functional
Answers are plain numbers, in %.

// known answers, use as guide
- Chemical smiles: "CCCCc1cc(C(=O)O)n[nH]1"
  RIA [%]: 75.7
- Chemical smiles: "O=C(O)c1cc[nH]n1"
  RIA [%]: 78.5
- Chemical smiles: "O=C(O)c1cc(Cc2ccccc2)n[nH]1"
  RIA [%]: 52.4

Working through the 5 compounds below one at a time, give RIA for each.
1. O=C(O)c1cccnc1
2. CCCc1cc(C(=O)O)n[nH]1
3. O=C(O)c1n[nH]c2c1CCC2
4. CC(C)c1cc(C(=O)O)n[nH]1
5. O=C(O)c1cc(Cc2cccc(Cl)c2)n[nH]1

[100, 53.5, 51.7, 49.2, 39.4]
